method: Pharmacokinetic studies in rats
Format: in vivo
conditions.used: male, SD, rat, plasma, oral, 0.05 mg/kg; 82 ng/ml divided by 20; read-out: Cmax calculated for 0.1 mg/kg/day, bid (0.05 mg/kg)
Procedure: Pharmacokinetic Studies in Rats: An appropriate amount of a compound suspended in 1% aqueous methylcelluose solution was administered to male SD rats by oral gavage. […] Plasma was separated from each withdrawn blood sample by centrifugation and the plasma sample was stored at 4° C. until HPLC analysis for the quantification of the compound. The plasma samples were analyzed by reverse phase HPLC using an appropriate internal standard and a pre-established calibration curve.
measured.metric: Cmax
Answer with the figure and its unit, nothing else.

The molecule listed as CC1(C)OC(c2ccc(S(N)(=O)=O)cc2)=C(c2cccc(F)c2)C1=O [Example 1] has a reported Cmax of 4.1 ng/mL

* * *

test.system: Human CA I (Homo sapiens, UniProt P00915)
Construct: purchased Sigma C-6165
Sequence (P00915 whole entry): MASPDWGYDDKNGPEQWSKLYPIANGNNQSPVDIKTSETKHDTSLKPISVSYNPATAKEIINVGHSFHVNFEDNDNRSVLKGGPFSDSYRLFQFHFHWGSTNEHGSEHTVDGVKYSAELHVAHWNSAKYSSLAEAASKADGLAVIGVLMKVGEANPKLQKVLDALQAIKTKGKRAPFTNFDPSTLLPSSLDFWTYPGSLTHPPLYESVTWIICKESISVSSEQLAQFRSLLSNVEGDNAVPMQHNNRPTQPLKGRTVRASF
method: Inhibition assay for CA (Method B, esterase activity), CA I
Assay type: biochemical
conditions.used: p-nitrophenylacetate hydrolysis, pH 7.6
Consider the following compounds; for each one, report its pIC50.
Numbers only, as −log10 of the molar value.

compound	pIC50
CC1(C)OC(c2ccc(S(N)(=O)=O)c(F)c2)=C(c2cccc(F)c2)C1=O [Example 4]	6.68
CC1(C)OC(c2ccc(S(N)(=O)=O)cc2)=C(c2cccc(F)c2)C1=O [Example 1]	6.54

The compound listed as CC1(C)OC(c2ccc(S(N)(=O)=O)c(F)c2)=C(c2cc(F)ccc2F)C1=O [Example 5] has a reported pIC50 of 6.62
